Provenance of the data: patent US20200270309A1

Test system: choroidal neovascularization
assay overview: Choroidal neovascularization in rats (laser photocoagulation, FFA)
Format: in vivo
setup conditions: day 7 after administration, total light spot number was 186, 0.05 μM in the vitreous chamber once a day for 1 week, BN rats
Peptide text beside a SMILES is read from it. * marks the point of attachment. X65 = O=C1C=CC(=O)N1c1cccc(CCCCCCCCCCCCC(=O)*)c1; X64 = O=C1C=CC(=O)N1c1cccc(CCCCCCCCCC(=O)*)c1
Measured Leakage Light spot number values are reported for all entries that follow.
Write the number on its own, no unit after it.

I have this molecule here, C[C@H](NC(=O)CNC(=O)[C@H](CCCNC(=N)N)NC(=O)CCCCCCCCCc1cccc(N2C(=O)C=CC2=O)c1)C(=O)N[C@@H](CC(=O)O)C(=O)N[C@@H](CCCNC(=N)N)C(=O)N[C@@H](C)C(=O)NCC(=O)NCC(=O)NCC(=O)NCC(=O)N[C@@H](CCCNC(=N)N)C(=O)NCC(=O)N[C@@H](CC(=O)O)C(=O)O [X33] (X64-RGADRAGGGGRGD-OH) , and I need its recorded Leakage Light spot number.
86

Now for a further molecule.
Recorded Leakage Light spot number of C[C@H](NC(=O)CNC(=O)[C@H](CCCNC(=N)N)NC(=O)CCCCCCCCCCCCc1cccc(N2C(=O)C=CC2=O)c1)C(=O)N[C@@H](CC(=O)O)C(=O)N[C@@H](CCCNC(=N)N)C(=O)N[C@@H](C)C(=O)NCC(=O)NCC(=O)NCC(=O)NCC(=O)N[C@@H](CCCNC(=N)N)C(=O)NCC(=O)N[C@@H](CC(=O)O)C(=O)O [X36] (X65-RGADRAGGGGRGD-OH) , please.
92

====

assay overview: Half-lives and pharmacokinetic parameters of polypeptides vs HM-1
setup conditions: in vivo
Peptide text beside a SMILES is read from it. * marks the point of attachment. X37 = O=C1C=CC(=O)N1c1ccc(CCCCCC(=O)*)cc1; X79 = O=C1C=CC(=O)N1c1cccc(CCC(=O)*)c1
MRT inf for assorted compounds
The response must be a number in h with no trailing unit.

Reported MRT inf for C[C@H](NC(=O)CNC(=O)[C@H](CCCNC(=N)N)NC(=O)CCCCCc1ccc(N2C(=O)C=CC2=O)cc1)C(=O)N[C@@H](CC(=O)O)C(=O)N[C@@H](CCCNC(=N)N)C(=O)N[C@@H](C)C(=O)NCC(=O)NCC(=O)NCC(=O)NCC(=O)N[C@@H](CCCNC(=N)N)C(=O)NCC(=O)N[C@@H](CC(=O)O)C(=O)O [X41] (X37-RGADRAGGGGRGD-OH) : what is it?
47.5

Now, please, on to the next compound.
Recorded MRT inf for C[C@H](NC(=O)CNC(=O)[C@H](CCCNC(=N)N)NC(=O)CCc1cccc(N2C(=O)C=CC2=O)c1)C(=O)N[C@@H](CC(=O)O)C(=O)N[C@@H](CCCNC(=N)N)C(=O)N[C@@H](C)C(=O)NCC(=O)NCC(=O)NCC(=O)NCC(=O)N[C@@H](CCCNC(=N)N)C(=O)NCC(=O)N[C@@H](CC(=O)O)C(=O)O [X26] (X79-RGADRAGGGGRGD-OH) , please?
62

====

# Inhibition rate (%) annotations
System: human retinal capillary endothelial cells (HRCECs)
assay overview: MTT proliferation inhibition on HRCECs
Assay type: cell-based
setup conditions: 48 h, dose 0.05 μM
Marks after values point to notes of the source that are not given here. Peptide text beside a SMILES is read from it. * marks the point of attachment. X74 = O=C1C=CC(=O)N1c1cccc(CCCCCCCCCCC(=O)*)c1; X84 = O=C1C=CC(=O)N1c1ccccc1CCCCCCCCCCCCC(=O)*; X75 = O=C1C=CC(=O)N1c1cccc(CC(=O)*)c1

Before answering, review these 2 worked examples.
Which Inhibition rate (%) is reported for this compound? C[C@H](NC(=O)CNC(=O)[C@H](CCCNC(=N)N)NC(=O)CCCCCCCCCCc1cccc(N2C(=O)C=CC2=O)c1)C(=O)N[C@@H](CC(=O)O)C(=O)N[C@@H](CCCNC(=N)N)C(=O)N[C@@H](C)C(=O)NCC(=O)NCC(=O)NCC(=O)NCC(=O)N[C@@H](CCCNC(=N)N)C(=O)NCC(=O)N[C@@H](CC(=O)O)C(=O)O [X34] (X74-RGADRAGGGGRGD-OH)
50.55%*

Which Inhibition rate (%) is reported for this compound? C[C@H](NC(=O)CNC(=O)[C@H](CCCNC(=N)N)NC(=O)Cc1cccc(N2C(=O)C=CC2=O)c1)C(=O)N[C@@H](CC(=O)O)C(=O)N[C@@H](CCCNC(=N)N)C(=O)N[C@@H](C)C(=O)NCC(=O)NCC(=O)NCC(=O)NCC(=O)N[C@@H](CCCNC(=N)N)C(=O)NCC(=O)N[C@@H](CC(=O)O)C(=O)O [X25] (X75-RGADRAGGGGRGD-OH)
50.23%*

Read the next record carefully.
Form field: reported Inhibition rate (%) of C[C@H](NC(=O)CNC(=O)[C@H](CCCNC(=N)N)NC(=O)CCCCCCCCCCCCc1ccccc1N1C(=O)C=CC1=O)C(=O)N[C@@H](CC(=O)O)C(=O)N[C@@H](CCCNC(=N)N)C(=O)N[C@@H](C)C(=O)NCC(=O)NCC(=O)NCC(=O)NCC(=O)N[C@@H](CCCNC(=N)N)C(=O)NCC(=O)N[C@@H](CC(=O)O)C(=O)O [X24] (X84-RGADRAGGGGRGD-OH)
40.01%*
